tested on: P388 leukemia ip, CD2F1 mice, survival T/C; experiment: NCI In Vivo Anticancer Drug Screen. Data for tumor model P388 Leukemia (intraperitoneal) in CD2F1 (CDF1) mice; conditions: endpoint: median survival time; dose: 400.0 mg/kg/injection; schedule: Q04DX003 (ip); vehicle: saline with Tween-80; higher = longer survival
Toxic doses and inconclusive results are not listed.
experimental_readout: T/C

Return reported T/C values for all items listed beneath this line.
1. Cc1ccccc1N1C(=O)[N+]2(CCCCC2)N=C1[O-]
2. C=C(C)Cn1ccn(C)c1=S
3. Oc1ccc2ccccc2c1N=Nc1ccc(Cl)cc1

*A*
1. 92 % of control
2. 102 % of control
3. 90 % of control

Batch of 3 compounds: report T/C for each.
1. Cc1c(Cl)cccc1NS(=O)(=O)c1ccccc1
2. Nc1cc(N)cc(Cc2ccccc2)c1
3. O=C(OCCO)c1ccccc1O

*A*
1: 90 % of control; 2: 95 % of control; 3: 95 % of control

----------
test system: P388 leukemia ip, CD2F1 mice, survival T/C; experiment: NCI In Vivo Anticancer Drug Screen. Data for tumor model P388 Leukemia (intraperitoneal) in CD2F1 (CDF1) mice; conditions: endpoint: median survival time; dose: 400.0 mg/kg/injection; schedule: Q01DX001 (ip); vehicle: saline with Tween-80; higher = longer survival
Inconclusive results and toxic doses are left out.
experimental_readout: T/C

Example results:
*Q* Value lookup for T/C; key = Brc1cnc2nc(-c3cccc4ccccc34)[nH]c2c1
*A* 91 % of control

*Q* Another molecule to look at: Cc1cc(CO)cc(CO)c1
*A* 100 % of control

*Q* // same read-out, input: COC(=O)c1cccc2c(=O)c(CCl)c(-c3ccccc3)sc12
*A* 91 % of control

Batch of 7 molecules: report T/C for each.
1. COC(=O)Cn1/c(=N\N=C(/C)c2ccccc2)sc2ccccc21
2. CSC(=S)n1nc(-c2ccccc2)c(N=Nc2cccc(Cl)c2Cl)c1-c1ccccc1
3. Brc1cnc2nc(Cc3cccc4ccccc34)[nH]c2c1
4. CN(c1ccccc1)S(=O)(=O)c1ccc2ccccc2c1O
5. Cc1c(-c2ccccc2)oc(=O)c(Cl)c1N(C)c1ccccc1
6. O=C1Cc2[nH]ccc2C(=O)O1
7. Cc1nn(-c2ccccc2)c(=O)n2c(-n3c(C)nn(-c4ccccc4)c3=O)nnc12

*A*
99 % of control
97 % of control
97 % of control
91 % of control
91 % of control
107 % of control
99 % of control

----------
Give measured T/C for each item. Keep answers brief.
system: P388 leukemia ip, CD2F1 mice, survival T/C; test: NCI In Vivo Anticancer Drug Screen. Data for tumor model P388 Leukemia (intraperitoneal) in CD2F1 (CDF1) mice; details: endpoint: median survival time; dose: 25.0 mg/kg/injection; schedule: Q01DX009 (ip); vehicle: water; higher = longer survival
Toxic doses and inconclusive results are not listed.

Worked examples, 2 compounds total:
*Q* Item Cc1ccc(C)[nH][nH]c(N)n1 has what recorded T/C?
*A* 99 % of control

*Q* And what about the compound CC#CCOCC(O)CO (stereo not given) ?
*A* 108 % of control

Take each entry in turn and give its T/C.
1. CS(=O)(=O)O/C=C1/CCOC1=O
2. c1cc2c(ncn3nnnc23)[nH]1
3. CCN(CC)CCCC(C)NC(C)CCCN(CC)CC (stereo not given)

*A*
120 % of control
108 % of control
108 % of control

----------
Could you please report measured T/C for the items listed next?
system: P388 leukemia ip, CD2F1 mice, survival T/C; experiment: NCI In Vivo Anticancer Drug Screen. Data for tumor model P388 Leukemia (intraperitoneal) in CD2F1 (CDF1) mice; settings: endpoint: median survival time; dose: 12.5 mg/kg/injection; schedule: Q01DX009 (ip); vehicle: distilled water + Tween-80; higher = longer survival
Inconclusive results and toxic doses are left out.

Known results for compounds:
*Q* API: value(readout=T/C, system=P388 leukemia ip, CD2F1 mice, survival T/C) for record CCCCCNC(=O)c1csc(-c2csc(CCNC(C)=O)n2)n1
*A* 100 % of control

*Q* Here is the next compound: COc1ccc([N+](=O)[O-])c(/C=C/C(=O)c2ccccn2)c1
*A* 98 % of control

*Q* Okay, and COc1cc(CBr)ccc1OCc1ccccc1 ?
*A* 111 % of control

# batch: return T/C for each of the 2 compounds below
1. CCOC(=O)CC1Cc2ccc3ccc(OC)cc3c2C1=O (stereo unspecified)
2. NC(=O)CCNC(=O)CCCNC(=O)CCNC(=O)OCc1ccccc1

*A*
102 % of control
96 % of control

*Q* Lab note: need T/C with P388 leukemia ip, CD2F1 mice, survival T/C for entry CC(C)(C)N=NNc1ccc([N+](=O)[O-])cc1 , please look it up.
*A* 106 % of control

----------
test system: P388 leukemia ip, CD2F1 mice, survival T/C; assay: NCI In Vivo Anticancer Drug Screen. Data for tumor model P388 Leukemia (intraperitoneal) in CD2F1 (CDF1) mice; conditions: endpoint: median survival time; dose: 25.0 mg/kg/injection; schedule: Q01DX009 (ip); vehicle: saline with Tween-80; higher = longer survival
Toxic doses and inconclusive results are not listed.
experimental_readout: T/C

Consider the reported T/C for these compounds:
*Q* Any idea what T/C was measured for O=C(CI)NCCNc1cccc2c(S(=O)(=O)O)cccc12 ?
*A* 102 % of control

*Q* Moving on to CCCCCCC(=O)/C=C/c1ccc(OC(=O)c2ccc(Br)cc2)cc1
*A* 96 % of control

*Q* Queued: O=C(O)c1cnc2cc(Cl)ccc2n1
*A* 100 % of control

*Q* Then what about the compound Nc1nc(N)c2nc3c(nc2n1)C(=O)N(c1ccc(C(=O)O)cc1)C3 ?
*A* 117 % of control

*Q* Next compound up: CC(=O)c1ccc(C)cc1C
*A* 98 % of control

Would you be so kind as to report T/C for each listed record?
1. c1ccc(-c2ccc(-c3csnn3)cc2)cc1
2. CC[As](CCO)SC1CC(OC(=O)c2ccccc2)C(OC(=O)c2ccccc2)C(COC(=O)c2ccccc2)O1 (configuration not stated)
3. N#CCc1ccc(Cl)c(Cl)c1
4. O=C1N/C(=N\c2nc3ccccc3s2)c2ccccc21

*A*
["95 % of control", "110 % of control", "100 % of control", "91 % of control"]

# batch size: 4; output T/C per entry
1. CC(C)(C)N=C(CCN1CCN(CCC(=NC(C)(C)C)Nc2ccc([N+](=O)[O-])cc2)CC1)Nc1ccc([N+](=O)[O-])cc1
2. CCCCC(=O)NN
3. CC1CCC2C(C)C(=O)OC2C2(C)C(=O)C=CC12 (configuration not stated)
4. COc1ccc2[nH]c3c(c2c1)CCNC3CC(C)CCC=C(C)C (configuration not stated)

*A*
1: 96 % of control; 2: 102 % of control; 3: 113 % of control; 4: 98 % of control

Working through the 2 compounds below one at a time, give T/C for each.
1. COc1cc(CC2C(=O)OCC2Cc2ccc3c(c2)OCO3)cc(OC)c1OC (configuration not stated)
2. O=C1C2C3C=CC(C2C(=O)N1CCl)C1C2C(=O)N(CCl)C(=O)C2C31 (configuration not stated)

*A*
104 % of control
103 % of control

----------
Give T/C for every item shown.
system: P388 leukemia ip, CD2F1 mice, survival T/C; experiment: NCI In Vivo Anticancer Drug Screen. Data for tumor model P388 Leukemia (intraperitoneal) in CD2F1 (CDF1) mice; conditions: endpoint: median survival time; dose: 25.0 mg/kg/injection; schedule: Q01DX009 (ip); vehicle: Klucel (hydroxypropylcellulose) (HPC); higher = longer survival
Toxic doses and inconclusive results are not listed.

Some solved entries appear below for comparison.
*Q* Request the reported T/C associated with [O-][n+]1nc2ccccc2c2ccccc21
*A* 105 % of control

*Q* Now the same for CC1(C)CCCC(C)(C2CCC3(C)C2C(O)CC2C4(C)CCC(O)C(C)(C)C4C(O)CC23C)O1 (configuration not stated)
*A* 96 % of control

*Q* Same for CN(C)c1cc(N(C)C)c2ccccc2n1
*A* 106 % of control

*Q* Again, but for C/C=C(\C)C(=O)OC1CC(OC(=O)/C(C)=C/C)C2(C)C3C(=O)C=C(C)C2C3C1(C)C (configuration not stated)
*A* 96 % of control

*Q* Same for Cc1[nH]c2c(-c3ccccc3)c3cc(Cl)ccc3nc2c1C(=O)O
*A* 92 % of control

*Q* Repeat for the following compound: COC1/C=C/OC2(C)Oc3c(C)c(O)c4c(c3C2=O)C(N)=C(NC2CC2)C(=NC(=O)/C(C)=C\C=C\C(C)C(O)C(C)C(O)C(C)C(OC(C)=O)C1C)C4=O (configuration not stated)
*A* 102 % of control

*Q* Can you handle C[N+](C)(C)C1(Cc2ccccc2)c2ccccc2-c2ccc(Cl)cc21 (configuration not stated) next?
*A* 105 % of control

*Q* Then CNC(=O)Nc1ccccc1C(=O)NN ?
*A* 100 % of control

*Q* Another compound to look at: Cc1nonc1-c1ccc2c(c1)OCO2
*A* 110 % of control

*Q* What would you report for NC(CSc1nc2ccccn2c1[N+](=O)[O-])C(=O)O (configuration not stated) ?
*A* 100 % of control

Answer for every listed entry: what is its T/C? The entries follow.
1. C/C(=N\N=P(c1ccccc1)(c1ccccc1)c1ccccc1)C(C)(C)C
2. C=C1CC23CC4C5C6(C)CC(O)CC57C(C2C(O)C1C(O)C37)N4C6 (configuration not stated)
3. Nc1ccc2ccccc2c1-c1c(N)ccc2ccccc12
4. C=C1CC(O)C2C(=C)C(=O)OC2C2C(C)C(=O)CC12 (configuration not stated)

*A*
1. 94 % of control
2. 106 % of control
3. 102 % of control
4. 115 % of control

For each of the compounds below, state T/C.
1. O=C(N/N=C\c1ccc(N(CCCl)CCCl)cc1)c1cccnc1
2. CCSC(=Nc1nc2ccc(NC(C)=O)cc2s1)SCC
3. Cc1ccc(Cl)cc1NC(=O)Nc1nccs1
4. CCCN1c2c3c(O)c4c(O)c(C)c5c(c4c2O)C(=O)C(C)(O/C=C/C(OC)C(C)C(OC(C)=O)C(C)C(O)C(C)C(O)C(C)/C=C/C=C(/C)C(=O)N3C1C)O5 (configuration not stated)
5. O=C1CC2(CCCCC2)C(=O)N1c1cc([N+](=O)[O-])ccn1
6. CCC(O)(c1ccccc1)C(O)c1ccccc1 (configuration not stated)
7. C=CCNSc1cccc([N+](=O)[O-])c1
8. CCCCCC(=O)OCCN1CCN(CCCN2c3ccccc3Sc3ccc(C(F)(F)F)cc32)CC1

*A*
1: 107 % of control; 2: 98 % of control; 3: 93 % of control; 4: 96 % of control; 5: 101 % of control; 6: 98 % of control; 7: 121 % of control; 8: 101 % of control
